All figures here come from patent US11071735B2.

Entries and their IC50
# TARGET_OF_ASSAY: GLUT1 (Homo sapiens, UniProt P11166)
# Construct: endogenous in cells; host or cells: DLD1 WT cancer cells
# Sequence (P11166 whole entry): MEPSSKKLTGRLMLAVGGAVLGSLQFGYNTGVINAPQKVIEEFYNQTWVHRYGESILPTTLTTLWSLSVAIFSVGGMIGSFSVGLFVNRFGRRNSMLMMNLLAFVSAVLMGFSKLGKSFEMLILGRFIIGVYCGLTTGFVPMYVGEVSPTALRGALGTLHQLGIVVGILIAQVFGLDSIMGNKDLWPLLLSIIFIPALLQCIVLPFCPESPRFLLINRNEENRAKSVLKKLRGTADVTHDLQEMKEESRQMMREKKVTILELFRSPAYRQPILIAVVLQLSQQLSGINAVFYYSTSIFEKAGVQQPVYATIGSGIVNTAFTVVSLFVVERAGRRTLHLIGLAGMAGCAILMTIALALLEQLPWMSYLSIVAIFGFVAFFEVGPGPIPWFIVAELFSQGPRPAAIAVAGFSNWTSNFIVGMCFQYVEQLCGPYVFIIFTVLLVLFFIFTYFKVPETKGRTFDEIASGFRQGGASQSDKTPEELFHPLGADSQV
# MEASUREMENT_NOTES: glycolysis assay in DLD1 WT cells (rely on GLUT1)
# Assay type: cell-based
# EXPERIMENTAL_CONTEXT: DLD1-WT cells; 10 μM oligomycin, one hour
# Procedure: Cells were treated with GLUT inhibitors plus oligomycin and subsequently ATP levels were determined using Cell Titer Glo. […] FIG. 1B reports the IC50 of glycolysis inhibition for selected compounds. Accordingly, we have investigated the use of inhibitors of GLUT transporters against activated pro-inflammatory immune cells, including but not limited to activated human CD4+ T cells. […]
Give the quantity in nM, number only.

Reference set (4 entries):
COCCOc1ccc2nc(-c3cccc(OCC(=O)NC(C)C)c3)nc(Nc3ccc(-c4cn[nH]c4)cc3)c2c1 [Ex. 31] | 62.1
CCC(C)NC(=O)COc1cccc(-c2nc(Nc3ccc(-c4cn[nH]c4)cc3)c3cc(OCCOC)ccc3n2)c1 (centres unmarked) [Ex. 42] | 30.7
CC[C@@H](C)NC(=O)COc1cccc(-c2nc(Nc3ccc(-c4cn[nH]c4)cc3)c3cc(OC)ccc3n2)c1 [Ex. 52] | 81.6
CC[C@H](C)NC(=O)COc1cccc(-c2nc(Nc3ccc(-c4cn[nH]c4)cc3)c3ccc(F)cc3n2)c1 [Ex. 54] | 146

Please look at CCC(C)NC(=O)COc1cccc(-c2nc(Nc3ccc(-c4cn[nH]c4)cc3)c3ccc(F)cc3n2)c1 (centres unmarked) [Ex. 53] and tell me its recorded IC50 on GLUT1 (Homo sapiens, UniProt P11166).
222

Please look at COc1ccc2nc(-c3cccc(OCC(=O)NC4CC4)c3)nc(Nc3ccc(-c4cn[nH]c4)cc3)c2c1 [Ex. 9] and tell me its recorded IC50 on GLUT1 (Homo sapiens, UniProt P11166).
529

Please look at CC(C)NC(=O)COc1cccc(-c2nc(Nc3ccc(-c4cn[nH]c4)cc3)c3cc(OCCF)ccc3n2)c1 [Ex. 40] and tell me its recorded IC50 on GLUT1 (Homo sapiens, UniProt P11166).
160

====

Entries and their IC50
# TARGET_OF_ASSAY: GLUT3 (Homo sapiens, UniProt P11169)
# Construct: endogenous in cells; host or cells: DLD1 GLUT1−/− (knock-out) cancer cells
# Sequence (P11169 whole entry): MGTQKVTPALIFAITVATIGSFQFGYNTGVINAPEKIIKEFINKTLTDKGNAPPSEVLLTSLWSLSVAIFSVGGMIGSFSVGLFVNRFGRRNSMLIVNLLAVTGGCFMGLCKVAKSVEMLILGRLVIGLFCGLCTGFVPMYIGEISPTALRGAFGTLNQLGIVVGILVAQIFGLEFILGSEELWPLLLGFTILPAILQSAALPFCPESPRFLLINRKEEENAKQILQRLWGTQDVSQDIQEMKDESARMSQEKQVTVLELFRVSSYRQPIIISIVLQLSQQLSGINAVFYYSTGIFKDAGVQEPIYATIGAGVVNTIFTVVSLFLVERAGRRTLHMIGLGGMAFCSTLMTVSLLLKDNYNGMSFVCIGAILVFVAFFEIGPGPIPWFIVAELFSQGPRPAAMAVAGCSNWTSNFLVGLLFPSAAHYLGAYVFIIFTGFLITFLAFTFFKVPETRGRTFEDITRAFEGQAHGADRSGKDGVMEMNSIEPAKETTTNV
# MEASUREMENT_NOTES: glycolysis assay in DLD1 GLUT1−/− cells (rely on GLUT3)
# Format: cell-based
# EXPERIMENTAL_CONTEXT: DLD1-KO (GLUT1−/−) cells; 10 μM oligomycin, one hour
Give the quantity in nM, number only.

Reference set (5 entries):
COc1ccc2nc(-c3cc(F)cc(OCC(=O)NC(C)C)c3)nc(Nc3ccc(-c4cn[nH]c4)cc3)c2c1 | 325
COc1ccc2nc(-c3cccc(OCC(=O)NC4CCCC4)c3)nc(Nc3ccc(-c4cn[nH]c4)cc3)c2c1 | 110
CC[C@H](C)NC(=O)COc1cccc(-c2nc(Nc3ccc(-c4cn[nH]c4)cc3)c3ccc(F)cc3n2)c1 | 290
CCC(C)NC(=O)COc1cccc(-c2nc(Nc3ccc(-c4cn[nH]c4)cc3)c3cc(OCCF)ccc3n2)c1 (centres unmarked) | 58.9
COc1ccc2nc(-c3cccc(OCC(=O)NC(C)C)c3)nc(Nc3ccc(-c4cn[nH]c4)cc3)c2c1 | 97.6

Let me know recorded IC50 for CCOc1ccc2nc(-c3cccc(OCC(=O)NC(C)C)c3)nc(Nc3ccc(-c4cn[nH]c4)cc3)c2c1 , thanks.
60.9

Let me know recorded IC50 for CCOc1ccc2nc(-c3cccc(OCC(=O)NC4CC4)c3)nc(Nc3ccc(-c4cn[nH]c4)cc3)c2c1 , thanks.
129

Let me know recorded IC50 for CCOc1ccc2nc(-c3cccc(OCC(=O)NCC(F)(F)F)c3)nc(Nc3ccc(-c4cn[nH]c4)cc3)c2c1 , thanks.
86
